Target: UniProtKB P08253
Sequence (P08253 110-660): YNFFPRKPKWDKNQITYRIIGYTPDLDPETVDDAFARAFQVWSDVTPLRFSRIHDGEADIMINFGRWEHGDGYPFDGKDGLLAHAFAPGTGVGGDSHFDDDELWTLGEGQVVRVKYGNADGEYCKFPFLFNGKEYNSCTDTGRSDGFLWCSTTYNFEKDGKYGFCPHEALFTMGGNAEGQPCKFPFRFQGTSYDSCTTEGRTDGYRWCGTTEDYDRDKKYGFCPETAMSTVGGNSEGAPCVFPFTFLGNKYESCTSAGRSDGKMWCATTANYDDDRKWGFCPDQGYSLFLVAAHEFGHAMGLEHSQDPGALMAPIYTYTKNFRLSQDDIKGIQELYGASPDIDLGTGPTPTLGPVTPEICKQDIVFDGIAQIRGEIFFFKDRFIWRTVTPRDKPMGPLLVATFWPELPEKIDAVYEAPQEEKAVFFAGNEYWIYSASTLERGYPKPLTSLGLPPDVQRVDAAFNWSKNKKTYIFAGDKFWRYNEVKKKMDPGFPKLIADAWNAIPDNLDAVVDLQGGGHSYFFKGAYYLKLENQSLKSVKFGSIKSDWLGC
Settings: experimental binding energy from activity data; chiral compounds tested as racemic mixture
Experimental Endpoint: ΔG exp (binding energy toward MMP-2) (kcal)
Answers are plain numbers, in kcal.

Take a look at these entries with their results.
>  <Compound>
NC(CO)CO

>  <Unit Info>
kcal

>  <ΔG exp (binding energy toward MMP-2)>
-4.837

$$$$
>  <Compound>
O=C(O)C(F)(F)F.O=C(O)C(F)(F)F.[N-]=[N+]=NC[C@@H](N)Cc1c[nH]cn1

>  <Unit Info>
kcal

>  <ΔG exp (binding energy toward MMP-2)>
-4.524

$$$$
>  <Compound>
N#CC[C@H](N)CO.O=C(O)C(F)(F)F

>  <Unit Info>
kcal

>  <ΔG exp (binding energy toward MMP-2)>
-4.210

$$$$
>  <Compound>
N[C@H](CO)CS.O=C(O)C(F)(F)F

>  <Unit Info>
kcal

>  <ΔG exp (binding energy toward MMP-2)>
-4.319

$$$$

Lab note: each compound below needs its ΔG exp (binding energy toward MMP-2) filled in.
1. N[C@H](CO)Cc1c[nH]cn1.O=C(O)C(F)(F)F.O=C(O)C(F)(F)F
2. N#CC[C@@H](N)CS.O=C(O)C(F)(F)F

## Result
1: -4.565; 2: -4.497
